Each recorded value in this set is attributed to ChEMBL document CHEMBL1806459.

Assay: Ratio of drug level in brain to plasma of rat at 10 mg/kg, po
Assay type: ADME, organism-based
Design: dose 10 mg/kg, route oral
Details: read-out: BPR
measuredProperty: Kp
Respond with the number and no other words.

query: Which Kp value belongs to CCC(CC)Nc1nc(C)c(-c2ccc(OC(F)(F)F)cc2OC)nc1OC ?
result: 5.4

* * *

Target: hERG (KCNH2) (Homo sapiens)
Sequence (Q12809 whole entry): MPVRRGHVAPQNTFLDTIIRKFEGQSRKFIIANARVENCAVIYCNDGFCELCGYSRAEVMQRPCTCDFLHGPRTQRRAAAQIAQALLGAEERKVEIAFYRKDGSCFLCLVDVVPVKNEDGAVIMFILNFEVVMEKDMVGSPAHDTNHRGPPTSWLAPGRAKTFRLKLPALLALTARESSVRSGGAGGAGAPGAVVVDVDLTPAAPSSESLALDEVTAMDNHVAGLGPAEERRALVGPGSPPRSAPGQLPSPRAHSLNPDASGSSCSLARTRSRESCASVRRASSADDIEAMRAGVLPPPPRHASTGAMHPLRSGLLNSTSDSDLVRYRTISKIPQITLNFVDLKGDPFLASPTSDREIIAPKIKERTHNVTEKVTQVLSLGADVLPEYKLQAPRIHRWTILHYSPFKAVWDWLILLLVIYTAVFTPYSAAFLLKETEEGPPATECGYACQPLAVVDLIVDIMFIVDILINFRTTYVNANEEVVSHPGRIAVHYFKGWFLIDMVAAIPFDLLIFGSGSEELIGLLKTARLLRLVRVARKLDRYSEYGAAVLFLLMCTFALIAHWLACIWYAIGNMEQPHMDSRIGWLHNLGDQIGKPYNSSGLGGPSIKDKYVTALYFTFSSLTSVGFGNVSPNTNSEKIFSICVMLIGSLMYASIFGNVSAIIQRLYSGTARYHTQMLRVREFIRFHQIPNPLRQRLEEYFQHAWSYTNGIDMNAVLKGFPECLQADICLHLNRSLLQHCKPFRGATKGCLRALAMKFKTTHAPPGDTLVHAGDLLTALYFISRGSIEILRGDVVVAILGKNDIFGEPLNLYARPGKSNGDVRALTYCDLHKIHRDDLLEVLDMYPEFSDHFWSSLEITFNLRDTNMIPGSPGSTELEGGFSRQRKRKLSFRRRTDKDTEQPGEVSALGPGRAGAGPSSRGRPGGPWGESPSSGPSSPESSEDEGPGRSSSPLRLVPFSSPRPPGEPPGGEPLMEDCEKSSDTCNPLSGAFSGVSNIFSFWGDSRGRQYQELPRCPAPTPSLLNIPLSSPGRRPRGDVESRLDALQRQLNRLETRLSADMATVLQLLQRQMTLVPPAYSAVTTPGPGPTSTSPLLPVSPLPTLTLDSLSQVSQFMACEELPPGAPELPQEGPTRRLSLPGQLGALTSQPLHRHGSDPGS
Experiment: Inhibition of human ERG expressed in african green monkey COS7 cells at 3 uM by electrophysiological assay
Format: cell-based
Settings: COS-7 cells (African green monkey) expressing human ERG
measuredProperty: inhibition at 3 µM (%)
State the answer as a number, implicitly in %.

query: Which inhibition at 3 µM is reported for this compound? CCC(CC)Nc1nc(C)c(-c2ccc(OC(F)(F)F)cc2OC)nc1OC
result: 17
